- System: Staphylococcus aureus
- run_description: Antibacterial activity against Staphylococcus aureus ATCC BAA 1026 assessed as growth inhibition at 50 ug/disk after 24 hr by Kirby-Bauer disk diffusion method
- Format: functional
- run_conditions: ATCC BAA 1026, 24 h, read-out: DIZ
measured_property: zone of inhibition at 50 µg/disc (mm)

[
  {
    "molecule": "CCC1SCCC(=O)N1CCCNc1ccnc2cc(Cl)ccc12 (stereo unspecified)",
    "unit_info": "mm",
    "obs_value": 23.1
  },
  {
    "molecule": "O=C1CCSC(c2ccco2)N1CCCNc1ccnc2cc(Cl)ccc12 (stereo unspecified)",
    "unit_info": "mm",
    "obs_value": 24.2
  },
  {
    "molecule": "COc1ccc(C2SCCC(=O)N2CCCNc2ccnc3cc(Cl)ccc23)cc1 (stereo unspecified)",
    "unit_info": "mm",
    "obs_value": 24.1
  },
  {
    "molecule": "CN(C)c1ccc(C2SCCC(=O)N2CCCNc2ccnc3cc(Cl)ccc23)cc1 (stereo unspecified)",
    "unit_info": "mm",
    "obs_value": 23.9
  },
  {
    "molecule": "Cc1ccc(C2SCCC(=O)N2CCCNc2ccnc3cc(Cl)ccc23)s1 (stereo unspecified)",
    "unit_info": "mm",
    "obs_value": 23.9
  },
  {
    "molecule": "O=C1CCSC(c2ccccc2F)N1CCCNc1ccnc2cc(Cl)ccc12 (stereo unspecified)",
    "unit_info": "mm",
    "obs_value": 23.9
  }
]

Where these numbers come from: ChEMBL document CHEMBL3044696
